Recorded Human T-cell Binding 0.2 uM (MFI), one value per entry.
# EXPERIMENTAL SYSTEM: T1, human CD8 alpha (CD8A) on primary human CD8+ T cells (human, UniProt P01732 22-235)
# T1 construct: whole, on cells; also called hCD8A
# T1 sequence (P01732 22-235): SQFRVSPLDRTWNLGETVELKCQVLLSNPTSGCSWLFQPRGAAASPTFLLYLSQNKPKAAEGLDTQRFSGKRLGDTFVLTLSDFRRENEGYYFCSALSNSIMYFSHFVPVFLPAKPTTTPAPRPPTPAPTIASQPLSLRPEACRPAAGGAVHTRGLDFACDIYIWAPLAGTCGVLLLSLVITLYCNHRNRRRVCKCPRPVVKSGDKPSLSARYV
# TEST DESCRIPTION: flow cytometry, human CD8+ T cells, 0.2 uM FN3
All answers are understood in MFI, so give the number only.

P282DR9P1359_E2 (designed binder, FN3 domain) LPAPKNLVVSRVTEDSARLSWTAPDAAFDSFNIFYPEIVTWGEAIVLTVPGSERSYDLTGLKPGTEYWVNIVGVKGGDNSWPLSAIFTT
4820

q: For P282DR9P1359_F7 (designed binder, FN3 domain) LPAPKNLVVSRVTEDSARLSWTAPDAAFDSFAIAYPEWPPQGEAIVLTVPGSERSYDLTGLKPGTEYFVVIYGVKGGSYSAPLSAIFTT , what is its reported Human T-cell Binding 0.2 uM (MFI)?
a: 6930

q: For P283BR9P1363_A10 (designed binder, FN3 domain) LPAPKNLVVSRVTEDSARLSWQRADDILPYFDSFLIQYQESEKVGEAIVLTVPGSERSYDLTGLKPGTEYTVSIYGVDVKYDIDSRPISSNPLSAIFTT , what is its reported Human T-cell Binding 0.2 uM (MFI)?
a: 2750
